Ref: patent EP1247803A2

- system name: FLK-1 receptor (Mus musculus, UniProt P35918)
- Construct: expressed in transfected cells; host or cells: NIH3T3 C7#3
- Sequence (P35918 20-1345): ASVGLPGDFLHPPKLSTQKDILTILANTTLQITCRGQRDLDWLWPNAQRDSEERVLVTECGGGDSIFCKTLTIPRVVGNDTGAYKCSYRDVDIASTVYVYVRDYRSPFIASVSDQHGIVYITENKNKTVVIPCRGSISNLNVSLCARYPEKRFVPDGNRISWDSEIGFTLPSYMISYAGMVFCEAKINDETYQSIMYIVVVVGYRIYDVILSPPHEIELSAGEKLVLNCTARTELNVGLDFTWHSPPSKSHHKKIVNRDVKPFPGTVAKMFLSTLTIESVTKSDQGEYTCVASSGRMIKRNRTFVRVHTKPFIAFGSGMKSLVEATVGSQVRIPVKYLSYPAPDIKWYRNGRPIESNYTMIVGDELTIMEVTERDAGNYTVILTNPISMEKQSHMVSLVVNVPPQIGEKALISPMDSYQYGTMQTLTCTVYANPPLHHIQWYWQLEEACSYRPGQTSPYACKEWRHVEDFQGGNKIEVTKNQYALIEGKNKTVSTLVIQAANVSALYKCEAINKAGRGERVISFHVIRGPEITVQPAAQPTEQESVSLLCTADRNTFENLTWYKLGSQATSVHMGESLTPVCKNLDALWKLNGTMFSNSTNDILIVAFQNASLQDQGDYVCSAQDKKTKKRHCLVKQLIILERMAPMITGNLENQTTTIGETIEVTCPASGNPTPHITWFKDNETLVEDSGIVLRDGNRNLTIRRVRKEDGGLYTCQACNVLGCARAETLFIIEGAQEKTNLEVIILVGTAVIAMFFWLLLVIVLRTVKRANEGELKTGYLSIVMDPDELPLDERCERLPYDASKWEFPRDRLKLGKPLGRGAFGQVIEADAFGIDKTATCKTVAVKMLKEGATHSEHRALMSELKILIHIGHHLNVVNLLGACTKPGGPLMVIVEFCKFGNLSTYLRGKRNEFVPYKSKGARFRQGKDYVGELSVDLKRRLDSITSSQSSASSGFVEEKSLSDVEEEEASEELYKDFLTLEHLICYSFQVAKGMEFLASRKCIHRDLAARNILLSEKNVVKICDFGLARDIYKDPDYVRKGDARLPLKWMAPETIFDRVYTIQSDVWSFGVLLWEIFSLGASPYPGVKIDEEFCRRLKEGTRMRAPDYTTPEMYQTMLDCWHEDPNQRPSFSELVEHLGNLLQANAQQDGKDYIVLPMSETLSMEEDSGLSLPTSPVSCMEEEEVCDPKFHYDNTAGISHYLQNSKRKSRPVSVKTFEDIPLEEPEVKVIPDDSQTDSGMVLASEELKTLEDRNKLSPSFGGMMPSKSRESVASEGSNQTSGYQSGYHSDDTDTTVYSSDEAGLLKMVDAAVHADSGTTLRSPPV
- assay: FLK-1 ELISA (kinase activity of the FLK-1 receptor in FLK-1/NIH3T3 cells, VEGF stimulated)
- Assay type: cell-based

- molecule: "Cc1c(Br)ccc2c1C(=Cc1ccc(Br)s1)C(=O)N2"
  system name: "FLK-1 receptor (Mus musculus, UniProt P35918)"
  Fik Kinase %Inhibition, %: 6.3
- molecule: "O=C1Nc2ccc(CCCl)cc2C1=Cc1ccc(Cl)s1"
  system name: "FLK-1 receptor (Mus musculus, UniProt P35918)"
  Fik Kinase %Inhibition, %: 3.3
- molecule: "O=C1Nc2ccc(CCCl)cc2C1=Cc1cc(O)c(O)c(Br)c1"
  system name: "FLK-1 receptor (Mus musculus, UniProt P35918)"
  Fik Kinase %Inhibition, %: 8.7
- molecule: "Cc1cc(C=C2C(=O)Nc3c(Br)cc(Br)cc32)oc1C"
  system name: "FLK-1 receptor (Mus musculus, UniProt P35918)"
  Fik Kinase %Inhibition, %: 6.8
- molecule: "Cc1c(Br)ccc2c1C(=Cc1nc3ccccc3n1C)C(=O)N2"
  system name: "FLK-1 receptor (Mus musculus, UniProt P35918)"
  Fik Kinase %Inhibition, %: 9.7
- molecule: "CCc1ccc(C=C2C(=O)Nc3ccc(CCCl)cc32)s1"
  system name: "FLK-1 receptor (Mus musculus, UniProt P35918)"
  Fik Kinase %Inhibition, %: 10.5
- molecule: "CC(C)(C)c1cc(C=C2C(=O)Nc3ccc(S(=O)(=O)Nc4ccc(C(F)(F)F)cc4)cc32)cc(C(C)(C)C)c1O"
  system name: "FLK-1 receptor (Mus musculus, UniProt P35918)"
  Fik Kinase %Inhibition, %: 0.7
- molecule: "COc1ccc(C=C2C(=O)Nc3ccc(CCCl)cc32)c2ccccc12"
  system name: "FLK-1 receptor (Mus musculus, UniProt P35918)"
  Fik Kinase %Inhibition, %: 10.4
- molecule: "O=C1Nc2ccc(S(=O)(=O)Nc3ccc(C(F)(F)F)cc3)cc2C1=Cc1ccc(O)c(O)c1O"
  system name: "FLK-1 receptor (Mus musculus, UniProt P35918)"
  Fik Kinase %Inhibition, %: 8.1
- molecule: "Cc1cc(C)c(C=C2C(=O)Nc3ccc(S(=O)(=O)Nc4ccc(C(F)(F)F)cc4)cc32)[nH]1"
  system name: "FLK-1 receptor (Mus musculus, UniProt P35918)"
  Fik Kinase %Inhibition, %: 15.7
- molecule: "O=C1Nc2ccc(S(=O)(=O)N3CCOCC3)cc2C1=Cc1c[nH]cn1"
  system name: "FLK-1 receptor (Mus musculus, UniProt P35918)"
  Fik Kinase %Inhibition, %: 9.9
- molecule: "O=C1Nc2ccc(F)cc2C1=C1C(=O)Nc2ccc(S(=O)(=O)N3CCOCC3)cc21"
  system name: "FLK-1 receptor (Mus musculus, UniProt P35918)"
  Fik Kinase %Inhibition, %: 15.3
- molecule: "COc1cc(OC)c(OC)cc1C=C1C(=O)Nc2c(Br)cc(Br)cc21"
  system name: "FLK-1 receptor (Mus musculus, UniProt P35918)"
  Fik Kinase %Inhibition, %: -3.2

###

Reported Met Kinase % Inhibition is given for each of the following compounds.
- Tested on: MET
- assay: MET biochemical kinase assay
- Design: species or system human; concentration or dose not given beside the values
property: Met Kinase % Inhibition (%)

- compound: "COc1ccc(C=C2C(=O)Nc3ccc(I)cc32)c(O)c1 [10723/B09]"
  property: "Met Kinase % Inhibition"
  measured number: 57.7
- compound: "Cc1ccsc1C=C1C(=O)Nc2c(Br)cc(Br)cc21 [10729/A05]"
  property: "Met Kinase % Inhibition"
  measured number: 38.8
- compound: "COc1ccc(C=C2C(=O)Nc3ccc(I)cc32)cc1OC [10720/B04]"
  property: "Met Kinase % Inhibition"
  measured number: 61.8
- compound: "O=C1Nc2c(Br)cc(Br)cc2C1=Cc1ccc(-c2ccccc2Cl)o1 [10730/A07]"
  property: "Met Kinase % Inhibition"
  measured number: 55.4
- compound: "CC(C)c1ccc2occ(C=C3C(=O)Nc4ccc(S(=O)(=O)Nc5ccc(C(F)(F)F)cc5)cc43)c(=O)c2c1 [10731/E05]"
  property: "Met Kinase % Inhibition"
  measured number: 82.2
- compound: "O=C1Nc2ccc(I)cc2C1=Cc1ccc(N2CCOCC2)cc1 [10725/B08]"
  property: "Met Kinase % Inhibition"
  measured number: 66.7
- compound: "CNS(=O)(=O)c1ccc2c(c1)C(=Cc1c(O)cc(O)cc1O)C(=O)N2 [10722/D03]"
  property: "Met Kinase % Inhibition"
  measured number: 52.8
- compound: "CCOC(=O)c1c(C)[nH]c(C=C2C(=O)Nc3c(Br)cc(Br)cc32)c1C [10718/A02]"
  property: "Met Kinase % Inhibition"
  measured number: 54.6
- compound: "COc1c(Cl)cc(C=C2C(=O)Nc3ccc(Br)c(C)c32)cc1C(C)(C)C [10732/C09]"
  property: "Met Kinase % Inhibition"
  measured number: 37.9
- compound: "O=C1Nc2ccc(S(=O)(=O)N3CCOCC3)cc2C1=Cc1cc(O)ccc1O [10727/F10]"
  property: "Met Kinase % Inhibition"
  measured number: 93.4
- compound: "O=C1Nc2c(Br)cc(Br)cc2C1=CC1C=CCCC1 (stereo not shown) [10729/A11]"
  property: "Met Kinase % Inhibition"
  measured number: 49.9
- compound: "CNS(=O)(=O)c1ccc2c(c1)C(=Cc1cc(C(C)(C)C)c(OCc3ccccc3)c(C(C)(C)C)c1)C(=O)N2 [10733/D05]"
  property: "Met Kinase % Inhibition"
  measured number: 25.1
- compound: "O=C1Nc2ccc(CCCl)cc2C1=Cc1c(F)cccc1C(F)(F)F [10728/G09]"
  property: "Met Kinase % Inhibition"
  measured number: 22.2
- compound: "N#Cc1ccc(C=C2C(=O)Nc3ccc(S(=O)(=O)Nc4ccc(C(F)(F)F)cc4)cc32)cc1 [10727/E09]"
  property: "Met Kinase % Inhibition"
  measured number: 28.4
- compound: "CCN(CC)c1ccc(C=C2C(=O)Nc3c(Br)cc(Br)cc32)cc1 [10727/A02]"
  property: "Met Kinase % Inhibition"
  measured number: 52.0
- compound: "O=C1Nc2ccc(CCCl)cc2C1=Cc1ccncc1 [10729/G09]"
  property: "Met Kinase % Inhibition"
  measured number: 49.6
- compound: "COc1cc(C=C2C(=O)Nc3ccc(Br)c(C)c32)cc2c1OCO2 [10728/C11]"
  property: "Met Kinase % Inhibition"
  measured number: 45.2
- compound: "CCc1c(C)[nH]c(C=C2C(=O)Nc3ccc(Br)c(C)c32)c1C [10719/C05]"
  property: "Met Kinase % Inhibition"
  measured number: 35.5
- compound: "CCc1ccc(C=C2C(=O)Nc3ccc(Br)c(C)c32)o1 [10724/C10]"
  property: "Met Kinase % Inhibition"
  measured number: 91.2
- compound: "O=C1Nc2c(Br)cc(Br)cc2C1=Cc1cccc(Oc2ccccc2)c1 [10729/A06]"
  property: "Met Kinase % Inhibition"
  measured number: 29.8
- compound: "CCN(CC)c1ccc(C=C2C(=O)Nc3ccc(I)cc32)c(O)c1 [10734/B05]"
  property: "Met Kinase % Inhibition"
  measured number: 67.8
- compound: "O=C1Nc2ccc(I)cc2C1=Cc1ccc(O)c([N+](=O)[O-])c1 [10724/B03]"
  property: "Met Kinase % Inhibition"
  measured number: 51.0
- compound: "O=C1Nc2ccc(S(=O)(=O)N3CCOCC3)cc2C1=Cc1ccc(-c2ccccc2Cl)o1 [10730/F07]"
  property: "Met Kinase % Inhibition"
  measured number: 60.7
- compound: "COc1ccc(C=C2C(=O)Nc3ccc(S(=O)(=O)Nc4ccc(C(F)(F)F)cc4)cc32)c(OC)c1 [10719/E04]"
  property: "Met Kinase % Inhibition"
  measured number: 3.1
- compound: "COc1ccc(C=C2C(=O)Nc3ccc(I)cc32)c(OC)c1 [10719/B04]"
  property: "Met Kinase % Inhibition"
  measured number: 38.4

###

- Test system: MET
- assay: MET biochemical kinase assay
- Design: species or system human; concentration or dose not given beside the values
Please use true (1) whenever Met Kinase % Inhibition is not below 40%, and false (0) whenever it is.

- molecule: "O=C1Nc2ccc(CCCl)cc2C1=Cc1coc2ccc([N+](=O)[O-])cc2c1=O"
  class assignment: "false (0)"
- molecule: "CSc1ccc(C=C2C(=O)Nc3ccc(S(=O)(=O)Nc4ccc(C(F)(F)F)cc4)cc32)cc1"
  class assignment: "false (0)"
- molecule: "Cn1cccc1C=C1C(=O)Nc2ccc(I)cc21"
  class assignment: "true (1)"
- molecule: "O=C1Nc2c(Br)cc(Br)cc2C1=Cc1ccc(O)c(O)c1O"
  class assignment: "true (1)"
- molecule: "Cc1c(Br)ccc2c1C(=Cc1cccnc1)C(=O)N2"
  class assignment: "true (1)"
- molecule: "COc1cc(C=C2C(=O)Nc3ccc(I)cc32)cc2c1OCO2"
  class assignment: "true (1)"
- molecule: "CNS(=O)(=O)c1ccc2c(c1)C(=Cc1cc(Cl)c(O)c(C(C)(C)C)c1)C(=O)N2"
  class assignment: "true (1)"
- molecule: "O=C1Nc2ccc(S(=O)(=O)Nc3ccc(C(F)(F)F)cc3)cc2C1=Cc1ccc(Cl)s1"
  class assignment: "true (1)"
- molecule: "O=C1Nc2c(Br)cc(Br)cc2C1=Cc1cc2c3c(c1O)CCCN3CCC2"
  class assignment: "true (1)"
- molecule: "O=C1Nc2ccc(I)cc2C1=Cc1sccc1Br"
  class assignment: "true (1)"
- molecule: "Cc1ccc2occ(C=C3C(=O)Nc4ccc(S(=O)(=O)Nc5ccc(C(F)(F)F)cc5)cc43)c(=O)c2c1"
  class assignment: "false (0)"
- molecule: "O=C(O)COc1ccccc1C=C1C(=O)Nc2ccc(CCCl)cc21"
  class assignment: "false (0)"
- molecule: "CNS(=O)(=O)c1ccc2c(c1)C(=Cc1cccc(Oc3ccccc3)c1)C(=O)N2"
  class assignment: "false (0)"
- molecule: "O=C1Nc2ccc(S(=O)(=O)Nc3ccc(C(F)(F)F)cc3)cc2C1=Cc1cccs1"
  class assignment: "true (1)"
- molecule: "O=C1Nc2c(Br)cc(Br)cc2C1=Cc1csc([N+](=O)[O-])c1"
  class assignment: "true (1)"
